biological target: CYP450 (Homo sapiens, UniProt P04798+P05177+P05181+P08684+P10632+P10635+P11509+P11712+P13584+P20813+P20815+P20853+P24462+P24903+P33260+P33261+P51589+P78329+P98187+Q02928+Q08477+Q16678+Q16696+Q5TCH4+Q6VVX0+Q7Z449+Q8TAV3+Q96SQ9+Q9HB55); test: Inhibition of CYP450 (unknown origin); assay type: ADME, protein assay
Counter-ions that a name gives are not always drawn.
measurement name: pIC50
Answers are plain numbers, as −log10 of the molar value.

Asked: Determine from records and report pIC50 for CCCC(C(=O)OCCN(CC)CC)(c1ccccc1)c1ccccc1 [PROADIFEN HYDROCHLORIDE]
Given back: 4.72
